Data provenance: patent US11407715B2

Test system: DENV-3 strain H87
Test: Tetravalent RT-qPCR assay, serotype 3
Format: cell-based, Dengue virus
Conditions: RT-qPCR serotype 3 H87, Vero cells
Method: The antiviral activity of the compounds of the invention was tested against DENV-1 strain TC974#666 (NCPV), DENV-2 strain 16681, DENV-3 strain H87 (NCPV) and DENV-4 strain H241 (NCPV) in a RT-qPCR assay. Therefore, Vero cells were infected with either DENV-1, or -2, or -3, or -4 in the presence or absence of test compounds. […] In addition, CC50 values are determined based on the Cp values acquired for the housekeeping gene β-actin. […]
Outcome Measure: EC50 (nM)
Reply with just the number (in nM).

Molecule | Units Label | EC50
COc1cc(NC(C(=O)N2CCc3ccc(OC(F)(F)F)cc32)c2ccc(Cl)cc2)cc(OCC(C)CC(=O)O)c1 (single isomer, unassigned) [Compound 4C] | nM | 0.77

// field: EC50; key: COc1cc(NC(C(=O)N2CCc3ccc(OC(F)(F)F)cc32)c2ccc(Cl)cc2)cc(OCC2CC(C(=O)O)C2)c1 (stereo not drawn) [Compound 11B] ; value = 1.8

Noted for COc1cc(NC(C(=O)N2CCc3ccc(OC(F)(F)F)cc32)c2ccc(Cl)cc2)cc(OCC2(F)CC2C(=O)O)c1 (stereo not drawn) [Compound 29AB] : its EC50 reads 4.6
